test-target: T1, chimeric construct (CHIM) (human)
T1 construct: CEACAM6 AA 1-273 joined to the membrane-peripheral region containing domain B3 of CEA (AA 596-687), C-terminal 6xHis; also called chimeric CEA
T1 chain: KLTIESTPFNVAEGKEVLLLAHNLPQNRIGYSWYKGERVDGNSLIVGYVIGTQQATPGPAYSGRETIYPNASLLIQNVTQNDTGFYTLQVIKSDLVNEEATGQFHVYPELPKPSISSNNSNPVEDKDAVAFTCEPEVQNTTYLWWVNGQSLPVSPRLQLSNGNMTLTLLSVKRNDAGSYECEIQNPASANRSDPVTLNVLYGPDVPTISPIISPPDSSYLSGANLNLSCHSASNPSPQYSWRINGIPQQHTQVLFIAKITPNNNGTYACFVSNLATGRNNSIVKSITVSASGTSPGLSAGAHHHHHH
assay-procedure: SPR; binding to CHIM

>  <binder>
BGA8179 (antibody, human IgG1, V domains shown, Built on the BGA7592-1F-ph-M (BGA2433) template; human IgG1/kappa) VH: QVQLVQSGAEVKKPGASVKVSCKASGYIFTSYYLHWVRQAPGQGLEWIGYINPQTGYTSYAQKFQGRVTMTRDTSTSTVYMELSSLRSEDTAVYYCAREYGNYNYPLDYWGQGTLVTVSS VL: DIQMTQSPSSLSASVGDRVTITCRASENQYGYLAWYQQKPGKVPKLLIYNTKNLVEGVPSRFSGSGSGTDFTLTISSLQPEDVATYYCQHHLGTPYTFGQGTKVEIK

>  <display-unit>
M⁻¹ s⁻¹

>  <kon>
19900

$$$$
>  <binder>
BGA2107 (antibody, human IgG1, V domains shown, Built on the BGA7592-1F-ph-M (BGA2433) template; human IgG1/kappa) VH: QVQLVQSGAEVKKPGASVKVSCKASGYIFTSYWLHWVRQAPGQGLEWIGYINPNTGYTSYAQKFQGRVTMTRDTSTSTVYMELSSLRSEDTAVYYCAREYGNYNYPLDYWGQGTLVTVSS VL: DIQMTQSPSSLSASVGDRVTITCRASENQYGYLAWYQQKPGKVPKLLIYNTKNLVEGVPSRFSGSGSGTDFTLTISSLQPEDVATYYCQHHLGTPYTFGQGTKVEIK

>  <display-unit>
M⁻¹ s⁻¹

>  <kon>
19800

$$$$
>  <binder>
BGA7592-1F-ph-M (antibody, human IgG1, V domains shown, human IgG1/kappa; also called BGA2433) VH: QVQLVQSGAEVKKPGASVKVSCKASGYIFTSYWLHWVRQAPGQGLEWIGYINPQTGYTSYAQKFQGRVTMTRDTSTSTVYMELSSLRSEDTAVYYCAREYGNYNYPLDYWGQGTLVTVSS VL: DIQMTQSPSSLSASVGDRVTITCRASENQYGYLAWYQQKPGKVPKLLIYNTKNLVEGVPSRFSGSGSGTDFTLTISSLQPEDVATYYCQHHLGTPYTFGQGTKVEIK

>  <display-unit>
M⁻¹ s⁻¹

>  <kon>
19700

$$$$
